These data points were gathered from the supplement of paper PMC10949913.

# System: CU-ACC2
# Protocol Summary: area under concentration-response curve (viability) (AUC (a.u.)); higher = less active
# Experimental Context: 48 h
Assignment: determine reported area under concentration-response curve for the given compounds.
Give bare numbers.

As a guide, the following entries are already answered.
COc1cc([C@@H](CC(=O)O)c2ccc(C)c(CN3C[C@@H](C)Oc4ccccc4[S+]3(=O)[O-])c2)cc2nnn(C)c12	295
COC1=CC=C(C=C1)C/2=C/OC3=C(C(=CC(=C3)O)O)C2=O	164

Hi! Can you tell me area under concentration-response curve for each of these compounds?
1. CC(=O)NC(C)c1ccc(Oc2ccc(OC(C)C)cc2)cc1 (stereo unspecified)
2. COc1ccc([S+](=O)([O-])N[C@@H](CNc2nc(C)nc(N3CCC(c4ccc5c(n4)NCCC5)CC3)c2C)C(=O)O)cc1
3. Cc1ccc(-c2ccc3ncc4c(c3n2)n(C2CCN(C(=O)[C@H](C)O)CC2)c(=O)n4C)cn1
4. CCOC\1=C(/C(=O)NC2=CC=C(OC3=C(Cl)C(=NC=C3)N)C(=C2)F)C(=O)N(\C=C1)C4=CC=C(F)C=C4

-- reply
[605, 441, 492, 578]

Hi! Can you tell me area under concentration-response curve for each of these compounds?
1. C[C@](Cc1c[nH]c2ccccc12)(NC(=O)OC1C2CC3CC(C2)CC1C3)C(=O)NC[C@H](NC(=O)CCC(=O)O)c1ccccc1 (stereo partly specified)
2. CC1(C)S[C@H]2[C@H](NC(=O)[C@@H](N)c3ccc(O)cc3)C(=O)N2[C@H]1C(=O)O
3. COc1cc2c(cc1OC(C)C)[C@H](c1ccc(Cl)cc1)N(c1ccc(N(C)C[C@H]3CC[C@H](N4CCN(C)C(=O)C4)CC3)cc1)C(=O)C2

-- reply
582
597
510

Hi! Can you tell me area under concentration-response curve for each of these compounds?
1. OC1=CC=C(C=C1)\C2=C\OC3=C(C(=CC(=C3)O)O)C2=O
2. Nc1ccc(C(=O)c2cc3c(ccc4ccccc43)[nH]2)cc1
3. C[C@]\12CC[C@H](O)CC1=C/C[C@@H]3[C@@H]2CC[C@@]\4(C)[C@H]3C\C=C4C5=CN=CC=C5
4. OC(c1cc(C(F)(F)F)nc2c(C(F)(F)F)cccc12)C1CCCCN1 (stereo unspecified)

-- reply
1: 499; 2: 471; 3: 588; 4: 619

Hi! Can you tell me area under concentration-response curve for each of these compounds?
1. CN1CCN2c3ncccc3Cc3ccccc3C2C1 (stereo unspecified)
2. COc1cc2c(cc1OC)CN(CCc1ccc(NC(=O)c3cccc4c(=O)c5cccc(OC)c5[nH]c34)cc1)CC2
3. COc1ccc(CCN(C)CCCOc2ccc([S+](=O)([O-])c3c(C(C)C)c4ccccc4n3C)cc2)cc1OC

-- reply
579
621
565

###

Assignment: determine reported area under concentration-response curve for the given compounds.
# System: NCI-H295R
# Protocol Summary: area under concentration-response curve (viability) (AUC (a.u.)); higher = less active
# Experimental Context: 48 h
Numbers only.

C1C\N=C(\NC(C2CC2)C3CC3)O1	591

Hi! Can you tell me area under concentration-response curve for each of these compounds?
1. N[C@@H](Cc1ccc(O)c(O)c1)C(=O)O
2. O=C(NC1CCOCC1)c1ccc(-c2cc(-c3c[nH]nc3-c3ccccn3)ccn2)cc1
3. COc1ccc([S+](=O)([O-])N(CCO)c2ccccc2CN(C)C/C=C/c2ccc(Cl)cc2)cc1
4. CN1c2ccccc2C(=O)N2CCc3c([nH]c4ccccc34)C21 (stereo not given)

-- reply
1. 534
2. 453
3. 425
4. 512

###

# Tested on: CU-ACC2
# Protocol Summary: area under concentration-response curve (viability) (AUC (a.u.)); higher = less active
# Experimental Context: 48 h
Assignment: determine reported area under concentration-response curve for the given compounds.
Give bare numbers.

CC(C)(CO)n1cc(C(=O)c2cncc(NC(=O)Cc3ccc(Cl)cn3)c2)c2cnc(N)nc21	576
C/C(NNC(=O)c1cccc([S+](=O)([O-])N2CCOCC2)c1)=C1\C=C(Cl)C=CC1=O	585

Hi! Can you tell me area under concentration-response curve for each of these compounds?
1. OCCNC1CCCc2c1[nH]c1ccc(-c3ccccc3)cc21 (centres undefined)
2. COc1cc(C(=O)N2CCC(N3CCN(C)CC3)CC2)ccc1Nc1ncc2c(n1)N(C)c1ccccc1C(=O)N2C

-- reply
1: 526; 2: 423

###

Assignment: determine reported area under concentration-response curve for the given compounds.
# System: CU-ACC1
# Protocol Summary: area under concentration-response curve (viability) (AUC (a.u.)); higher = less active
# Experimental Context: 48 h
Give bare numbers.

FC1=CC=C(SC/2=N/N3\C=N/C(=O)/C(=C3/C=C2)C4=C(Cl)C=CC=C4Cl)C(=C1)F	453
Cc1cnc(Nc2ccc(N3CCN(C)CC3)cc2)nc1Nc1cccc([S+](=O)([O-])NC(C)(C)C)c1	466
COc1ncc(Nc2ncc(C(C)N3CCN([S+](C)(=O)[O-])CC3)cc2-c2nc(C)nc(N)n2)cc1F (centres undefined)	226

Let's switch to this compound now.
-- ask Return reported area under concentration-response curve; argument: "COc1cc(C)c(/C=C/C(C)=C/C=C/C(C)=C/C(=O)O)c(C)c1C"
-- reply 484

###

# Test system: NCI-H295R
# Protocol Summary: area under concentration-response curve (viability) (AUC (a.u.)); higher = less active
# Experimental Context: 48 h
Assignment: determine reported area under concentration-response curve for the given molecules.
Answers are plain numbers.

Cc1ccc(-c2ccc3ncc4c(c3n2)n(C2CCN(C(=O)[C@H](C)O)CC2)c(=O)n4C)cn1	394
CC(C)c1c(C(=O)Nc2ccccc2)c(-c2ccccc2)c(-c2ccc(F)cc2)n1CC[C@@H](O)C[C@@H](O)CC(=O)O	635
CCCn1c(=O)c2[nH]c(C34CC5CC3C[C@@H](C5)C4)nc2n(CCC)c1=O	489

Let's switch to this molecule now.
-- ask Return reported area under concentration-response curve; argument: "NC(=O)c1ccc2nc(-c3ccc(C4(N)CCC4)cc3)c(-c3ccccc3)n2n1"
-- reply 465

###

Assignment: determine reported AC50 viability for the given compounds.
# Tested on: NCI-H295R
# Protocol Summary: AC50 viability; higher = less potent
# Experimental Context: 48 h
Give bare numbers, in µM.

As a guide, the following entries are already answered.
O=C(Nc1cccc(C(F)(F)F)c1)Nc1cc([S+](=O)([O-])NC2CC2)ccc1-c1ccsc1	23.5
O=[S+]([O-])(Nc1ccc(-c2cccnc2)c2cccnc12)c1cccc(C(F)(F)F)c1	4.17

Hi! Can you tell me AC50 viability for each of these compounds?
1. O=c1[nH]c2ccccc2n1C1CCN(Cc2ccc(-c3nc4cc5nc[nH]c5cc4nc3-c3ccccc3)cc2)CC1
2. CC1=C(C)C2=C(S1)[N]3C(=NN=C3[C@H](CC(=O)OC(C)(C)C)/N=C2/C4=CC=C(Cl)C=C4)C
3. Oc1c(Cl)cc(Cl)c2cccnc12

-- reply
1. 20.9
2. 16.6
3. 16.6

Hi! Can you tell me AC50 viability for each of these compounds?
1. CC(C)c1ccc(Cn2ccc3c4c(N)nc(NC5CC5)nc4ccc32)cc1
2. COc1cc(N2CCN(C)CC2)ccc1Nc1ncc2c(n1)N(C)c1ccccc1C(=O)N2
3. Cn1c2ccccc2c2c3c(c4c5ccccc5n(CCC#N)c4c21)CNC3=O

-- reply
1: 2.95; 2: 23.5; 3: 14.8

###

# Test system: CU-ACC1
# Protocol Summary: area under concentration-response curve (viability) (AUC (a.u.)); higher = less active
# Experimental Context: 48 h
Measurement Label: area under concentration-response curve

Hi! Can you tell me area under concentration-response curve for each of these compounds?
1. O=C(O)CNC(=O)c1ncc(-c2cccc(Cl)c2)cc1O
2. Cc1c(C(=O)Nc2cccc(C(F)(F)F)c2)cc(-c2ccccc2)n1CCCN1CCOCC1
3. CCC(=O)O[C@@]1(CC[C@H]2[C@@H]3CCC/4=C/C(=O)CC[C@]4(C)[C@H]3CC[C@]12C)C(=O)CO

-- reply
1. 486
2. 573
3. 508

Hi! Can you tell me area under concentration-response curve for each of these compounds?
1. CN(C)Cc1ccc(-c2nc3cccc4c3n2CCNC4=O)cc1
2. Cc1ccc(-n2nc(C(C)(C)C)cc2NC(=O)Nc2ccc(OCCN3CCOCC3)c3ccccc23)cc1

-- reply
[294, 374]

###

# Tested on: NCI-H295R
# Protocol Summary: area under concentration-response curve (viability) (AUC (a.u.)); higher = less active
# Experimental Context: 48 h
Assignment: determine reported area under concentration-response curve for the given compounds.
One number for each entry.

C[C@]12CC[C@@H]3c4ccc(OC(=O)N(CCCl)CCCl)cc4CC[C@H]3[C@@H]1CC[C@@H]2OP(=O)([O-])[O-]	533
COC(=O)N[C@H](C(=O)N1CCC[C@H]1c1ncc(-c2ccc(-c3ccc(-c4cnc([C@@H]5CCCN5C(=O)[C@@H](NC(=O)OC)C(C)C)[nH]4)cc3)cc2)[nH]1)C(C)C	508
C=CC(=O)Nc1cccc(Nc2nc(Nc3ccc(N4CCN(C(C)=O)CC4)cc3OC)ncc2C(F)(F)F)c1	362
CNC(=O)c1cc(Oc2ccc3nc(N[C@@H]4CCCC[C@H]4O)sc3c2)ccn1	548
C[C@H](CCC(=O)O)[C@H]1CC[C@H]2[C@@H]3[C@@H](O)C[C@@H]4C[C@H](O)CC[C@]4(C)[C@H]3CC[C@]12C	538
CC1(C)CN(C(=O)c2ccc(-c3cccc4nc(NC(=O)C5CC5)nn34)cc2)C1	381
CC[S+](=O)([O-])N1CCC([C@@H](C)n2c(C)c(/C(O)=N/Cc3c(OC)cc(C)nc3O)c3ccccc32)CC1	537
CCOC(=O)/C=C/[C@H](C[C@@H]1CCNC1=O)NC(=O)[C@@H](CC(=O)[C@@H](NC(=O)c1cc(C)on1)C(C)C)Cc1ccc(F)cc1	539
N[C@@H]1CONC1=O	559
CC/C(=C(/c1ccc(O)cc1)c1ccc(OCCNC)cc1)c1ccccc1	359

Hi! Can you tell me area under concentration-response curve for each of these compounds?
1. CC[C@@H]([C@H](C)O)N1\N=C/N(C1=O)C2=CC=C(C=C2)N3CCN(CC3)C4=CC=C(OCC5CO[C@@](C5)(C[N]6C=NC=N6)C7=C(F)C=C(F)C=C7)C=C4 (some centres not stated)
2. OC1=CC2=C(C(=C1)O)C(=O)\C=C(/O2)C3=CC=CC=C3
3. O=C(O)/C=C/c1ccc(Cn2ccnc2)cc1
4. CCCC(CCC)C(=O)NC/1=N/C(=O)N(/C=C1)[C@@H]2O[C@H](CO)[C@@H](O)C2(F)F
5. N[C@@H](CCC(=O)O)C(=O)N[C@@H](Cc1c[nH]c2ccccc12)C(=O)O
6. CCN1C(=O)\C(=C/C2=CN=C(NC3=CC=C(C=C3)N4CCN(C)CC4)N=C12)C5=C(Cl)C=C(C=C5)C6=CN=CS6

-- reply
1. 423
2. 437
3. 572
4. 543
5. 519
6. 568

-- ask Return reported area under concentration-response curve; argument: "CNC(=O)[C@H](Cc1c[nH]c2ccccc12)NC(=O)[C@@H](CC(=O)NO)CC(C)C"
-- reply 460
